Listed below are compounds with log10 of Ki for Beta-secretase 1 (Homo sapiens, UniProt P56817), each taken from published literature.
Heads up, the numbers here are log10 of Ki in nM units.

[in] Any idea what log10 of Ki was measured for `CN1C(=N)N[C@](C)(c2sc(-c3nnc(-c4ccc5[nH]cnc5c4)o3)cc2Cl)CS1(=O)=O` ?
[out] 2.98

[in] And then `COc1cnc(C(=O)Nc2ccc(F)c([C@@]3(CF)N=C(N)CCC3(F)F)c2)nc1` , what is it?
[out] 1.46

[in] And then `CN1C(=N)N[C@@]2(c3cc(NC(=O)c4ccc(F)cn4)ccc3F)CCC[C@H]2S1(=O)=O` , what is it?
[out] 1.00

[in] And then `C[C@@]1(F)C[C@H](F)[C@@](C)(c2cc(NC(=O)c3ccc(Cl)cn3)ccc2F)N=C1N` , what is it?
[out] 1.56

[in] And then `COc1cnc2c(Nc3cc([C@]4(C)CS(=O)(=O)[C@@](C)(C5CC5)C(N)=N4)c(F)cn3)ccnc2c1` , what is it?
[out] 0.72

[in] And then `CN1C(=N)N[C@](C)(c2sc(-c3nnc(-c4ccc(OCc5ccccc5)cc4)o3)cc2Cl)CS1(=O)=O` , what is it?
[out] 2.36

* * *

Listed below are compounds with pKi for Beta-secretase 1 (Homo sapiens, UniProt P56817), each taken from published literature.
Remember, pKi is on a log scale: it is -log10 of the molar concentration.

[in] Any idea what pKi was measured for `C[C@@]1(F)CC(F)(F)[C@@](C)(c2cc(NC(=O)c3nc(CF)cs3)ccc2F)N=C1N` ?
[out] 7.04

[in] And then `C[C@@]1(c2sc(-c3cncc(C#N)c3)cc2Cl)CS(=O)(=O)C2(CCOCC2)C(=N)N1` , what is it?
[out] 6.89

[in] And then `COC[C@H]1C[C@@H]2[C@](c3cc(Oc4cc(C#N)ccn4)ccc3F)(CO1)NC(=N)N(C)S2(=O)=O` , what is it?
[out] 8.72

[in] And then `CN1C(=N)N[C@](C)(c2cc(-c3nnc(-c4nccs4)o3)ccc2F)CS1(=O)=O` , what is it?
[out] 5.40

[in] And then `[2H]C([2H])([2H])Oc1ccc(C(=O)Nc2ccc(F)c([C@@]3(C)N=C(N)[C@](C)(F)C[C@@H]3F)c2)nc1` , what is it?
[out] 7.24

[in] And then `CC#CCOc1cnc2c(Nc3cc([C@]4(C)CS(=O)(=O)[C@@](C)(C5CC5)C(N)=N4)c(F)cn3)nccc2c1` , what is it?
[out] 9.10

[in] And then `CN1C(=N)N[C@](C)(c2cc(-c3nnc(-c4ccon4)o3)ccc2F)CS1(=O)=O` , what is it?
[out] 5.31

[in] And then `CC1(C)C(=N)N[C@@]2(CCOc3ccc(NC(=O)c4ccc(OCF)cn4)cc32)CS1(=O)=O` , what is it?
[out] 7.85

[in] And then `Cc1cc(C#N)cnc1C(=O)Nc1ccc2c(c1)[C@]1(CCC2)CS(=O)(=O)C(C)(C)C(=N)N1` , what is it?
[out] 8.70

[in] And then `Cc1nc2ccc(C(=O)Nc3ccc(F)c([C@]4(C)CN(C)S(=O)(=O)C(C)(C)C(=N)N4)c3)cc2o1` , what is it?
[out] 5.94

[in] And then `COC[C@H]1C[C@@H]2[C@](c3cc(Oc4cccc(C#N)c4)ccc3F)(CO1)NC(=N)N(C)S2(=O)=O` , what is it?
[out] 8.37

[in] And then `COC[C@H]1C[C@@H]2[C@](c3cc(OCC45CC(C#N)(C4)C5)ccc3F)(CO1)NC(=N)N(C)S2(=O)=O` , what is it?
[out] 8.04

[in] And then `CN1C(=N)N[C@](C)(c2sc(-c3cccc(-c4nnc(C5CC5)o4)c3)cc2Cl)CS1(=O)=O` , what is it?
[out] 6.69

[in] And then `CN1C(=N)N[C@](C)(c2sc3c(-c4ccc(-n5ccnn5)cc4)nccc3c2Cl)CS1(=O)=O` , what is it?
[out] 7.07

[in] And then `Cc1nc(N2C[C@H]3C(=O)N(C)C(=N)N[C@@]3(c3ccc(C#N)s3)C2)nc(C)c1F` , what is it?
[out] 7.28

[in] And then `Cc1nc(C(=O)Nc2ccc3c(c2)[C@]2(CCC3)CS(=O)(=O)C(C)(C)C(=N)N2)co1` , what is it?
[out] 7.68

[in] And then `C#CCOc1cnc(C(=O)Nc2ccc3c(c2)[C@]2(COC3)CS(=O)(=O)C(C)(C)C(=N)N2)cn1` , what is it?
[out] 7.70

[in] And then `CN1C(=N)N[C@](C)(c2sc3c(-c4ccc(-c5ccncc5)cc4)cccc3c2F)CS1(=O)=O` , what is it?
[out] 6.45

[in] And then `CN1C[C@@](C)(c2cc(NC(=O)c3ccc(OCF)cn3)ccc2F)NC(=N)C(C)(C)S1(=O)=O` , what is it?
[out] 7.43

[in] And then `CN1C(=N)N[C@](C)(c2sc(-c3ccnc(-c4nc(C5CC5)no4)c3)cc2Cl)CS1(=O)=O` , what is it?
[out] 6.90

[in] And then `CN1C(=N)N[C@](C)(c2cc(-c3ccc(F)c(C#N)c3)cs2)CS1(=O)=O` , what is it?
[out] 7.34

[in] And then `C[C@]1(F)CC(F)(F)[C@@](C)(c2cc(NC(=O)c3nc(CF)co3)ccc2F)N=C1N` , what is it?
[out] 7.43

[in] And then `CN1C(=N)N[C@](C)(c2sc(-c3nnc(-c4ccnn4C)o3)cc2Cl)CS1(=O)=O` , what is it?
[out] 5.82

[in] And then `C[C@H]1C[C@@H]2[C@](c3cc(Oc4ncccc4F)ccc3F)(CO1)NC(=N)N(C)S2(=O)=O` , what is it?
[out] 8.47

[in] And then `CN1C(=N)N[C@](C)(c2cc(-c3cncc(-c4cnco4)c3)cs2)CS1(=O)=O` , what is it?
[out] 7.07
